Biological target: MMP-2 (Homo sapiens, UniProt P08253)
Construct: purchased Abchem (so in the source)
Sequence (P08253 110-660): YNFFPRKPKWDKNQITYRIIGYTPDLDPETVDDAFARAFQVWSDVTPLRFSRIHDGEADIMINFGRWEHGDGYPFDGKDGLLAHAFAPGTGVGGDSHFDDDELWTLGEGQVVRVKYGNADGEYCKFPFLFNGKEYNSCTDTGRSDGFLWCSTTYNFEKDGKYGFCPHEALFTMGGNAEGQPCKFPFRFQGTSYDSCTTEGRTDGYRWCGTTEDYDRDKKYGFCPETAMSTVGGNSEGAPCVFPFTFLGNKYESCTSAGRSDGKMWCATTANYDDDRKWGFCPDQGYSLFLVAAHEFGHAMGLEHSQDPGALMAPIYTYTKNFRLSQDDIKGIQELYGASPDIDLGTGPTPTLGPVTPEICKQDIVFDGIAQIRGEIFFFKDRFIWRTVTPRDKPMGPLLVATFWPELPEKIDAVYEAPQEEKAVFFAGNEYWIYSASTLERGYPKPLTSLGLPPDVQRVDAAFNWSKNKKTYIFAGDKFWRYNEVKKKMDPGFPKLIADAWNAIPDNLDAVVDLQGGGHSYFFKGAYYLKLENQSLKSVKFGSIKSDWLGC
Test: MMP2 Inhibitor Screening Assay Kit (ab139446), colorimetric thiopeptide substrate, OD412
Assay type: biochemical
Conditions: remaining enzyme activity, untreated group = 100%; compound at 50 nM; n=2
Procedure: Enzyme activity (%) at the same concentration was compared with treatment with 0.5 µM MMP-1 activity and 50 nM MMP-2 and MMP-9 activity (n=2). […] To evaluate the effect of the new compound on the enzyme activity, the color change was measured by following the provided protocol using a kit sold by Abchem as follows. […] Therefore, the change in OD412 level (OD value) per minute was measured and the value was obtained according to the enzyme activity calculation formula below. […]
readout label: remaining activity at 0.05 µM (%)

q: Provide the reported remaining activity at 0.05 µM (system: MMP-2 (Homo sapiens, UniProt P08253)) for Cc1cc(C)c(S(=O)(=O)NC(C(=O)NO)C(C)C)c(C)c1 (centres unmarked)
a: 97.8

q: Provide the reported remaining activity at 0.05 µM (system: MMP-2 (Homo sapiens, UniProt P08253)) for Cc1cc(C)c(S(=O)(=O)NC(Cc2ccccc2)C(=O)NO)c(C)c1 (centres unmarked)
a: 95.6

(P) CC(C)CC(NS(=O)(=O)c1ccc(C(C)(C)C)cc1)C(=O)NO (centres unmarked)
(Q) CCCCOc1ccc(S(=O)(=O)NC(CC(C)C)C(=O)NO)cc1 (centres unmarked)
q: Form: Entry with minimum remaining activity at 0.05 µM (choose one): P / Q Mark your selection by writing its label.
a: Q

###

molecular target: MMP-9 (Homo sapiens, UniProt P14780); construct: purchased Abchem (so in the source); assay: MMP9 Inhibitor Screening Assay Kit (ab139448), colorimetric thiopeptide substrate, OD412; assay type: biochemical; conditions: inhibition; T-23~34 at 0.5 uM; read-out: MMP-9 (%) (inhibitory efficacy, high concentration)
Sequence (P14780 94-707): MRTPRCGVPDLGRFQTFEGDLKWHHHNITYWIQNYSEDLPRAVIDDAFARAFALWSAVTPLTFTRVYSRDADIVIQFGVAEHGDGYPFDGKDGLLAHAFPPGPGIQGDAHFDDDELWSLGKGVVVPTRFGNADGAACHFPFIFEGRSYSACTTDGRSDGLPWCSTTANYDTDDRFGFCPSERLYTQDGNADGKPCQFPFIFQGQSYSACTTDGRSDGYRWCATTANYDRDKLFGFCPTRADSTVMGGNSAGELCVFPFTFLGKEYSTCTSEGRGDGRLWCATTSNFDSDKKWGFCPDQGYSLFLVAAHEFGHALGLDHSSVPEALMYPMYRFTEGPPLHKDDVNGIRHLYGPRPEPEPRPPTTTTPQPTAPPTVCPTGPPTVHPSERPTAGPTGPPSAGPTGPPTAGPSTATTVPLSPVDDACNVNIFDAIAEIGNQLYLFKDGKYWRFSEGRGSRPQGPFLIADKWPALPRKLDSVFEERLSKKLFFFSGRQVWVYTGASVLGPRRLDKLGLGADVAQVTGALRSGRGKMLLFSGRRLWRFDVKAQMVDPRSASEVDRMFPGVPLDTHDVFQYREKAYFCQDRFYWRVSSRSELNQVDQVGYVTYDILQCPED
readout label: inhibition at 0.5 µM (%)

Before answering, review these 3 worked examples.
q: Supply inhibition at 0.5 µM value. Item: O=C(NO)C1CCCCN1S(=O)(=O)c1ccc(C23CC4CC(CC(C4)C2)C3)cc1 (stereo not drawn)
a: 0

q: Supply inhibition at 0.5 µM value. Item: CC(=O)c1ccc(S(=O)(=O)N2CCCC2C(=O)NO)cc1 (stereo not drawn)
a: 30.1

q: Supply inhibition at 0.5 µM value. Item: CC(=O)Nc1ccc(S(=O)(=O)N2CCCCC2C(=O)NO)cc1 (stereo not drawn)
a: 20.6

(A) CCCc1ccc(S(=O)(=O)N2CCCC2C(=O)NO)cc1 (stereo not drawn)
(B) O=C(NO)C1CCCN1S(=O)(=O)c1ccc(C23CC4CC(CC(C4)C2)C3)cc1 (stereo not drawn)
(C) CC(C)(C)c1ccc(S(=O)(=O)N2CCCC2C(=O)NO)cc1 (stereo not drawn)
q: Order each entry by recorded inhibition at 0.5 µM, climbing from the minimum. The labels, placed in the requested order, form the answer.
a: C, B, A
(C: 0%, B: 11.9%, A: 22.2%)

###

molecular target: MMP-1 (Homo sapiens, UniProt P03956); construct: purchased Abchem (so in the source); test: MMP1 Inhibitor Screening Assay Kit (ab139443), colorimetric thiopeptide substrate, OD412; type: biochemical; conditions: inhibition; T-05~20 at 10 uM; read-out: MMP-1 (%) (inhibitory efficacy, high concentration)
readout label: inhibition at 10 µM (%)

q: Supply inhibition at 10 µM value. Item: CC(C)CC(NS(=O)(=O)c1ccc(C(C)(C)C)cc1)C(=O)NO (centres unmarked)
a: 0

q: Supply inhibition at 10 µM value. Item: Cc1cc(C)c(S(=O)(=O)NC(C(=O)NO)C(C)C)c(C)c1 (centres unmarked)
a: 0

q: Supply inhibition at 10 µM value. Item: CC(C)(C)c1ccc(S(=O)(=O)NC(Cc2ccccc2)C(=O)NO)cc1 (centres unmarked)
a: 12.8

q: Supply inhibition at 10 µM value. Item: Cc1cc(C)c(S(=O)(=O)NC(Cc2ccccc2)C(=O)NO)c(C)c1 (centres unmarked)
a: 0

q: Supply inhibition at 10 µM value. Item: Cc1cc(C)c(S(=O)(=O)NC(CC(C)C)C(=O)NO)c(C)c1 (centres unmarked)
a: 0

(1) Cc1cc(C)c(S(=O)(=O)N2CCCCC2C(=O)NO)c(C)c1 (centres unmarked)
(2) CC(C)C(NS(=O)(=O)c1ccc(C(C)(C)C)cc1)C(=O)NO (centres unmarked)
(3) O=C(NO)C(Cc1ccccc1)NS(=O)(=O)c1ccc2ccccc2c1 (centres unmarked)
q: // ranking: key=inhibition at 10 µM, reverse=True The labels, placed in the requested order, form the answer.
a: 3, 1, 2
(3: 42.9%, 1: 8.3%, 2: 0%)

###

Target: MMP-1 (Homo sapiens, UniProt P03956)
Construct: purchased Abchem (so in the source)
Assay: MMP1 Inhibitor Screening Assay Kit (ab139443), colorimetric thiopeptide substrate, OD412
Format: biochemical
Conditions: remaining enzyme activity; T-05~20 at 10 uM; read-out: MMP-1 (%) (enzyme activity, high concentration)
Description: Enzyme activity (%) at the same concentration was compared with treatment with 0.5 µM MMP-1 activity and 50 nM MMP-2 and MMP-9 activity (n=2). Here, enzyme activity (%) refers to the enzyme activity (%) of the experimental group when the untreated group is considered to have 100% enzyme activity. To evaluate the effect of the new compound on the enzyme activity, the color change was measured by following the provided protocol using a kit sold by Abchem as follows. […]
readout label: remaining activity at 10 µM (%)

Before answering, review these 3 worked examples.
q: Supply remaining activity at 10 µM value. Item: CC(C)(C)c1ccc(S(=O)(=O)NC(Cc2ccccc2)C(=O)NO)cc1 (centres unmarked)
a: 87.2

q: Supply remaining activity at 10 µM value. Item: CC(C)C(NS(=O)(=O)c1ccc(C(C)(C)C)cc1)C(=O)NO (centres unmarked)
a: 100

q: Supply remaining activity at 10 µM value. Item: Cc1cc(C)c(S(=O)(=O)N2CCCCC2C(=O)NO)c(C)c1 (centres unmarked)
a: 91.7

(P) Cc1cc(C)c(S(=O)(=O)NC(C(=O)NO)C(C)C)c(C)c1 (centres unmarked)
(Q) O=C(NO)C(Cc1ccccc1)NS(=O)(=O)c1ccc2ccccc2c1 (centres unmarked)
q: Form: Entry with minimum remaining activity at 10 µM (choose one): P / Q Mark your selection by writing its label.
a: Q
(Q: 57.1%, P: 100%)

###

target: MMP-9 (Homo sapiens, UniProt P14780); construct: purchased Abchem (so in the source); assay: MMP9 Inhibitor Screening Assay Kit (ab139448), colorimetric thiopeptide substrate, OD412; type: biochemical; conditions: remaining enzyme activity; T-23~34 at 0.5 uM; read-out: MMP-9 (%) (enzyme activity, high concentration)
readout label: remaining activity at 0.5 µM (%)

(a) O=C(NO)C1CCCCN1S(=O)(=O)c1ccc(C23CC4CC(CC(C4)C2)C3)cc1 (stereo not drawn)
(b) CC(=O)c1ccc(S(=O)(=O)N2CCCC2C(=O)NO)cc1 (stereo not drawn)
q: Form: Entry with minimum remaining activity at 0.5 µM (choose one): a / b Mark your selection by writing its label.
a: b

###

biological target: MMP-2 (Homo sapiens, UniProt P08253); construct: purchased Abchem (so in the source); test: MMP2 Inhibitor Screening Assay Kit (ab139446), colorimetric thiopeptide substrate, OD412; format: biochemical; settings: remaining enzyme activity; T-23~34 at 0.5 uM; read-out: MMP-2 (%) (enzyme activity, high concentration)
readout label: remaining activity at 0.5 µM (%)

Before answering, review these 3 worked examples.
q: Supply remaining activity at 0.5 µM value. Item: O=C(NO)C1CCCCN1S(=O)(=O)c1ccc(C23CC4CC(CC(C4)C2)C3)cc1 (stereo not drawn)
a: 100

q: Supply remaining activity at 0.5 µM value. Item: CCCc1ccc(S(=O)(=O)N2CCCC2C(=O)NO)cc1 (stereo not drawn)
a: 73.7

q: Supply remaining activity at 0.5 µM value. Item: O=C(NO)C1CCCN1S(=O)(=O)c1ccc(C23CC4CC(CC(C4)C2)C3)cc1 (stereo not drawn)
a: 92.4

(1) CC(=O)c1ccc(S(=O)(=O)N2CCCC2C(=O)NO)cc1 (stereo not drawn)
(2) CC(C)(C)c1ccc(S(=O)(=O)N2CCCC2C(=O)NO)cc1 (stereo not drawn)
q: Form: Entry with minimum remaining activity at 0.5 µM (choose one): 1 / 2 Mark your selection by writing its label.
a: 1
(1: 62.2%, 2: 100%)

###

Target: MMP-1 (Homo sapiens)
Construct: purchased Abchem (so in the source)
Sequence (P03956 100-269 limits assumed): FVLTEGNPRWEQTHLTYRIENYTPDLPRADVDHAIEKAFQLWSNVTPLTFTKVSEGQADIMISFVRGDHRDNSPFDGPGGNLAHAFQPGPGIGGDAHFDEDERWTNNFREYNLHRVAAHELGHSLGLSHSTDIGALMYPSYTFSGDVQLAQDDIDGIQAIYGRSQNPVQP
Assay: MMP1 Inhibitor Screening Assay Kit (ab139443), colorimetric thiopeptide substrate, OD412
Format: biochemical
Conditions: remaining enzyme activity; T-23~34 at 5 uM; read-out: MMP-1 (%) (enzyme activity, high concentration)
readout label: remaining activity at 5 µM (%)

q: Provide the reported remaining activity at 5 µM (system: MMP-1 (Homo sapiens)) for O=C(NO)C1CCCN1S(=O)(=O)c1ccc(C23CC4CC(CC(C4)C2)C3)cc1 (stereo not drawn)
a: 100

(1) CC(=O)c1ccc(S(=O)(=O)N2CCCC2C(=O)NO)cc1 (stereo not drawn)
(2) CCCc1ccc(S(=O)(=O)N2CCCC2C(=O)NO)cc1 (stereo not drawn)
q: Form: Entry with minimum remaining activity at 5 µM (choose one): 1 / 2 Mark your selection by writing its label.
a: 1
(1: 41.8%, 2: 73.9%)

Cited source: patent EP4692062A1
